# studyTarget: T1, human RXFP1 (human, UniProt Q9HBX9 1-757)
# T1 sequence (looked up): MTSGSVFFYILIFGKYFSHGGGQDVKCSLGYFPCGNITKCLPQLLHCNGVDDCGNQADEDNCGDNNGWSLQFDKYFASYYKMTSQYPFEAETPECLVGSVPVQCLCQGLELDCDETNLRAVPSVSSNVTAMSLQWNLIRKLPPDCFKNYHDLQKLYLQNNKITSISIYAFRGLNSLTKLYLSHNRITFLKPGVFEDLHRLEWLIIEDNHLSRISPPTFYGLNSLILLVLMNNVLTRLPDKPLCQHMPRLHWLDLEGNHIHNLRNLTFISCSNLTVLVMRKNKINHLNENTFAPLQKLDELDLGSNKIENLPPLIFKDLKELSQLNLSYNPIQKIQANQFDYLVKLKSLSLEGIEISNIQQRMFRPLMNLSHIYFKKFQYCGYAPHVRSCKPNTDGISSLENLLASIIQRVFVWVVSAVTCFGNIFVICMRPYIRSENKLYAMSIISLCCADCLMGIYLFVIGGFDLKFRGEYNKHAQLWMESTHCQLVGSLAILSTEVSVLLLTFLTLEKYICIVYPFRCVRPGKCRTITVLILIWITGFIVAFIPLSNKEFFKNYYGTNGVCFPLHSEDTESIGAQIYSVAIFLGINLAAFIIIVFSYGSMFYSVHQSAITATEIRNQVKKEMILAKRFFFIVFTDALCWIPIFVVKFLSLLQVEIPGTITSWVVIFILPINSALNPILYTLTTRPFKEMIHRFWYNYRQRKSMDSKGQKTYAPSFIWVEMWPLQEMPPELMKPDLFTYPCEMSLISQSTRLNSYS
# assayName: cell-based or functional assay
assayMetric: Transient HEK293 hRXFP1 cAMP EC50 (nM)

# binder, assayMetric, experimentalResult
rows = [
    ("SEQ ID NO: 90 (Fc fusion) DKTHTCPPCPAPEAAGGPSVFLFPPKPKDTLMISRTPEVTCVVVDVSHEDPEVKFNWYVDGVEVHNAKTKPREEQYNSTYRVVSVLTVLHQDWLNGKEYKCKVSNKALAAPIEKTISKAKGQPREPQVYTLPPSRDELTKNQVSLTCLVKGFYPSDIAVEWESNGQPENNYKTTPPVLDSDGSFFLYSKLTVDKSRWQQGNVFSCSVLHEALHSHYTQKSLSLSPGKGGSDSWQEEVIKLCGRELVRAQIAICGKSTASDAAGAQAQAGARQLYSALANKCCHVGCTKRSLAQFC", "Transient HEK293 hRXFP1 cAMP EC50", 0.6),
]
